SYSTEM_UNDER_TEST: Hmlalpha2 (UniProt P0CY09)
Sequence: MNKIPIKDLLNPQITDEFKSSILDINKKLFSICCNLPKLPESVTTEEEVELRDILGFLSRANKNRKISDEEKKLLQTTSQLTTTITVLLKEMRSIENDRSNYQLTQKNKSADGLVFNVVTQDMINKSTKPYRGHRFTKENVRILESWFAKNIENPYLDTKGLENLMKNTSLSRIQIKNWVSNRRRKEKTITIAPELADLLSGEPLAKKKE
ASSAY_INFO: PBM E-score (8-mer binding enrichment) (E-score (-0.5 to 0.5)); higher = stronger / more preferred TF binding
CONDITION_CONTEXT: protein concentration: 200 nM; construct: GST-full length
Over roughly 33,000 sequences, “E-score (-0.5 to 0.5)” has its median near -0.04; the highest 2% begin near 0.36. The sample holds the highest values, similar sequences and a random draw of the others, so the mix is not that of the screen.
MEASURED_QUANTITY: PBM E-score

ENTRY_SEQUENCE: ATCTGTGG
MEASURED_QUANTITY: PBM E-score
REPORTED_VALUE: -0.267

ENTRY_SEQUENCE: CCGATCAA
MEASURED_QUANTITY: PBM E-score
REPORTED_VALUE: -0.0314

ENTRY_SEQUENCE: TCTGTACA
MEASURED_QUANTITY: PBM E-score
REPORTED_VALUE: 0.258

ENTRY_SEQUENCE: GGGTTACA
MEASURED_QUANTITY: PBM E-score
REPORTED_VALUE: 0.218

ENTRY_SEQUENCE: CGATTACC
MEASURED_QUANTITY: PBM E-score
REPORTED_VALUE: -0.0336

ENTRY_SEQUENCE: GCTGAAGC
MEASURED_QUANTITY: PBM E-score
REPORTED_VALUE: -0.14

ENTRY_SEQUENCE: CATACATA
MEASURED_QUANTITY: PBM E-score
REPORTED_VALUE: 0.329

ENTRY_SEQUENCE: AATATTAC
MEASURED_QUANTITY: PBM E-score
REPORTED_VALUE: 0.381

ENTRY_SEQUENCE: GATGTACC
MEASURED_QUANTITY: PBM E-score
REPORTED_VALUE: 0.135

ENTRY_SEQUENCE: CGGTGGAC
MEASURED_QUANTITY: PBM E-score
REPORTED_VALUE: -0.136

ENTRY_SEQUENCE: AATACAGA
MEASURED_QUANTITY: PBM E-score
REPORTED_VALUE: 0.204

ENTRY_SEQUENCE: AAACTGGG
MEASURED_QUANTITY: PBM E-score
REPORTED_VALUE: -0.278

ENTRY_SEQUENCE: TGATTAAA
MEASURED_QUANTITY: PBM E-score
REPORTED_VALUE: 0.133

ENTRY_SEQUENCE: CATGTACA
MEASURED_QUANTITY: PBM E-score
REPORTED_VALUE: 0.458

ENTRY_SEQUENCE: AATGTACT
MEASURED_QUANTITY: PBM E-score
REPORTED_VALUE: 0.186

ENTRY_SEQUENCE: CGTTACAC
MEASURED_QUANTITY: PBM E-score
REPORTED_VALUE: 0.385

ENTRY_SEQUENCE: AAGCCAAC
MEASURED_QUANTITY: PBM E-score
REPORTED_VALUE: 0.00741

ENTRY_SEQUENCE: AATATTAT
MEASURED_QUANTITY: PBM E-score
REPORTED_VALUE: 0.189

ENTRY_SEQUENCE: ATCCGTGG
MEASURED_QUANTITY: PBM E-score
REPORTED_VALUE: -0.229

ENTRY_SEQUENCE: TAGACGCA
MEASURED_QUANTITY: PBM E-score
REPORTED_VALUE: 0.0971

ENTRY_SEQUENCE: ATGAGGAG
MEASURED_QUANTITY: PBM E-score
REPORTED_VALUE: -0.187

ENTRY_SEQUENCE: GAGACGGA
MEASURED_QUANTITY: PBM E-score
REPORTED_VALUE: -0.095

ENTRY_SEQUENCE: CGTTACAA
MEASURED_QUANTITY: PBM E-score
REPORTED_VALUE: 0.318

ENTRY_SEQUENCE: AGCTGTTA
MEASURED_QUANTITY: PBM E-score
REPORTED_VALUE: 0.0595

ENTRY_SEQUENCE: AGAGTGCC
MEASURED_QUANTITY: PBM E-score
REPORTED_VALUE: -0.257

ENTRY_SEQUENCE: CATGTACC
MEASURED_QUANTITY: PBM E-score
REPORTED_VALUE: 0.287

ENTRY_SEQUENCE: CCCGATAC
MEASURED_QUANTITY: PBM E-score
REPORTED_VALUE: -0.0785

ENTRY_SEQUENCE: GCTTAGAA
MEASURED_QUANTITY: PBM E-score
REPORTED_VALUE: -0.00669

ENTRY_SEQUENCE: ACCACCAG
MEASURED_QUANTITY: PBM E-score
REPORTED_VALUE: -0.148

ENTRY_SEQUENCE: GGTGTACA
MEASURED_QUANTITY: PBM E-score
REPORTED_VALUE: 0.211

ENTRY_SEQUENCE: TCAGTACA
MEASURED_QUANTITY: PBM E-score
REPORTED_VALUE: 0.227

ENTRY_SEQUENCE: CAGGAGCA
MEASURED_QUANTITY: PBM E-score
REPORTED_VALUE: -0.173

ENTRY_SEQUENCE: CGCTCTCA
MEASURED_QUANTITY: PBM E-score
REPORTED_VALUE: -0.165

ENTRY_SEQUENCE: ACGGGTTG
MEASURED_QUANTITY: PBM E-score
REPORTED_VALUE: -0.15

ENTRY_SEQUENCE: AAGGTAAC
MEASURED_QUANTITY: PBM E-score
REPORTED_VALUE: 0.0918

ENTRY_SEQUENCE: ATGCTGTA
MEASURED_QUANTITY: PBM E-score
REPORTED_VALUE: 0.136

ENTRY_SEQUENCE: TGATTACA
MEASURED_QUANTITY: PBM E-score
REPORTED_VALUE: 0.445

ENTRY_SEQUENCE: AAGGTCCG
MEASURED_QUANTITY: PBM E-score
REPORTED_VALUE: -0.108

ENTRY_SEQUENCE: CCTGTACA
MEASURED_QUANTITY: PBM E-score
REPORTED_VALUE: 0.304

ENTRY_SEQUENCE: AATATTAG
MEASURED_QUANTITY: PBM E-score
REPORTED_VALUE: 0.0923

ENTRY_SEQUENCE: CGATTACA
MEASURED_QUANTITY: PBM E-score
REPORTED_VALUE: 0.461

ENTRY_SEQUENCE: GGTTACAC
MEASURED_QUANTITY: PBM E-score
REPORTED_VALUE: 0.314

ENTRY_SEQUENCE: TATGTACA
MEASURED_QUANTITY: PBM E-score
REPORTED_VALUE: 0.429

ENTRY_SEQUENCE: GCTCTCCC
MEASURED_QUANTITY: PBM E-score
REPORTED_VALUE: -0.266

ENTRY_SEQUENCE: ACGAGGGA
MEASURED_QUANTITY: PBM E-score
REPORTED_VALUE: -0.0452

ENTRY_SEQUENCE: TGATCAAA
MEASURED_QUANTITY: PBM E-score
REPORTED_VALUE: -0.137
